The measured values listed here are drawn from patent US20230002503A1.

Kd reference
- tested_on: human CAIX antigen (purchased from AcroBiosystems) (human, UniProt Q16790 38-414)
- measurement_notes: BLI (ForteBio), method of Example 3
measured_endpoint: Kd

binder: Hu-H-YE-32-D5 (Fc fusion, T0013 prints the label as Hu-H-YB-32-D5; also called Hu-H-YB-32-D5; humanized antibody from H-YE-32; not shown: human IgG1 Fc segment) QVQLVESGGGLVQPGGSLRLSCSASGGARNIFSFAAMHWYRQAPGKGLELVAVITSAGGTYYADSVKGRFTISRDNSKKTLYLQMNSLRAEDTAVYYCNADYYQDYWGQGTQVTVSS
value: 8.2 nM
//
binder: H-YE-32 (Fc fusion, also called CAIX nanobody H-YE-32; not shown: human IgG1 Fc segment) QVQLQESGGGLVQPGGSLRLSCAASGGARNIFSFAAMAWYRQAPGKQRELVAVITSAGGTQYSSSVKGRFTISRDNAKKTVLLQMNSLKPEDTAVYYCNADYYQDYWGQGTQVTVSS
value: 0.369 nM
//
binder: H-YE-23 (Fc fusion, also called CAIX nanobody H-YE-23; WYE-23; not shown: human IgG1 Fc segment) QVQLQESGGGLVQPGGSLRLSCAASGNSANIFSFASVAWYRQAPGKQRELVAVITSAGGTKYSDSVKGRFTISRDNAKNTILLQMNSLKPEDTAVYYCNVDYLQDYWGQGTQVTVSS
value: 4.08 nM
